Tested on: Pseudomonas aeruginosa ATCC 27853 planktonic and biofilm bacteria
Format: cell-based
MEASUREMENT_PARAMETERS: P. aeruginosa ATCC 27853 planktonic; LB+B1; 24 h exposure
One threshold, 20 mM, splits the recorded MBC values: lower ones are criterion met, equal or higher ones are criterion not met.

Exercise: MBC under 20 mM? Item: O=[N+]([O-])[O-].[Ag+] [Ag^+, silver nitrate]
Solution: criterion met

Exercise: Param item: O.O.O.O.O.O=S(=O)([O-])[O-].[Cu+2] [Cu^2+, cupric sulphate]
Solution: criterion met

Exercise: Param item: [Na+].[Na+].[O]=[Mo](=[O])([O-])[O-] [MoO4^2−, sodium molybdate]
Solution: criterion not met

Exercise: Param item: [Cl][Sn][Cl] [Sn^2+, stannous chloride]
Solution: criterion not met

Exercise: Param item: [Na+].[Na+].[O]=[W](=[O])([O-])[O-] [WO4^2−, sodium tungstate]
Solution: criterion not met

Exercise: Param item: O=[Se](O)O [SeO3^2−, selenous acid]
Solution: criterion not met

Exercise: Param item: [Cl][Cd][Cl] [Cd^2+, Cadmium chloride]
Solution: criterion not met

* * *

Consider the following compounds; for each one, report its MBEC.
Test system: Escherichia coli JM109 planktonic and biofilm bacteria
Assay type: cell-based
MEASUREMENT_PARAMETERS: E. coli JM109 biofilm; LB+B1; 24 h exposure
Numbers only, in mM.

Worked set:
>>> recorded_number("O=[Se](O)O")
8.1
>>> recorded_number("[Cl][Sn][Cl] [Sn^2+, stannous chloride]")
17

Proceeding to the next compound to report its MBEC.
Exercise: Consider the compound O.O.O.O.O.O=S(=O)([O-])[O-].[Cu+2] [Cu^2+, cupric sulphate] and give its measured MBEC.
Solution: 13

* * *

System: Pseudomonas aeruginosa ATCC 27853 planktonic and biofilm bacteria
Assay type: cell-based
MEASUREMENT_PARAMETERS: P. aeruginosa ATCC 27853 planktonic; LB+B1; 24 h exposure
PARAMETER: MBC (mM)
One number for each entry, in mM.

>>> recorded_number("O=[Te]([O-])[O-].[K+].[K+]")
5.1

Proceeding to the next compound to report its MBC.
Exercise: Consider the compound [Cl][Hg][Cl] [Hg^2+, mercuric chloride] and give its measured MBC.
Solution: 0.53

* * *

Consider the following molecules; for each one, report its MBC.
Test system: Pseudomonas aeruginosa ATCC 27853 planktonic and biofilm bacteria
Assay type: cell-based
MEASUREMENT_PARAMETERS: P. aeruginosa ATCC 27853 planktonic; LB+B1; 24 h exposure

>>> result("O=[Te](=O)([O-])[O-].[K+].[K+] [TeO4^2−, potassium tellurate]")
">1.3 mM"

Batch request: MBC per item, same order as input.
1. O=S(=O)([O-])[O-].[Zn+2] [Zn^2+, zinc sulphate]
2. O=S(=O)([O-])[O-].[Mn+2] [Mn^2+, manganous sulfate]

Solution:
[">125 mM", ">149 mM"]
